All figures here come from patent US10259810B2.

target: ΔF508-CFTR (Homo sapiens, UniProt P13569, DEL508-508); construct: host or cells: CFBE41o-, doxycycline-inducible; assay: CFTR cell surface levels using HRP-tagged ΔF508-CFTR expressing CFBE cells, in the presence of a co-corrector; assay type: cell-based
Sequence (P13569 with tags, fused parts or gaps DEL508-508): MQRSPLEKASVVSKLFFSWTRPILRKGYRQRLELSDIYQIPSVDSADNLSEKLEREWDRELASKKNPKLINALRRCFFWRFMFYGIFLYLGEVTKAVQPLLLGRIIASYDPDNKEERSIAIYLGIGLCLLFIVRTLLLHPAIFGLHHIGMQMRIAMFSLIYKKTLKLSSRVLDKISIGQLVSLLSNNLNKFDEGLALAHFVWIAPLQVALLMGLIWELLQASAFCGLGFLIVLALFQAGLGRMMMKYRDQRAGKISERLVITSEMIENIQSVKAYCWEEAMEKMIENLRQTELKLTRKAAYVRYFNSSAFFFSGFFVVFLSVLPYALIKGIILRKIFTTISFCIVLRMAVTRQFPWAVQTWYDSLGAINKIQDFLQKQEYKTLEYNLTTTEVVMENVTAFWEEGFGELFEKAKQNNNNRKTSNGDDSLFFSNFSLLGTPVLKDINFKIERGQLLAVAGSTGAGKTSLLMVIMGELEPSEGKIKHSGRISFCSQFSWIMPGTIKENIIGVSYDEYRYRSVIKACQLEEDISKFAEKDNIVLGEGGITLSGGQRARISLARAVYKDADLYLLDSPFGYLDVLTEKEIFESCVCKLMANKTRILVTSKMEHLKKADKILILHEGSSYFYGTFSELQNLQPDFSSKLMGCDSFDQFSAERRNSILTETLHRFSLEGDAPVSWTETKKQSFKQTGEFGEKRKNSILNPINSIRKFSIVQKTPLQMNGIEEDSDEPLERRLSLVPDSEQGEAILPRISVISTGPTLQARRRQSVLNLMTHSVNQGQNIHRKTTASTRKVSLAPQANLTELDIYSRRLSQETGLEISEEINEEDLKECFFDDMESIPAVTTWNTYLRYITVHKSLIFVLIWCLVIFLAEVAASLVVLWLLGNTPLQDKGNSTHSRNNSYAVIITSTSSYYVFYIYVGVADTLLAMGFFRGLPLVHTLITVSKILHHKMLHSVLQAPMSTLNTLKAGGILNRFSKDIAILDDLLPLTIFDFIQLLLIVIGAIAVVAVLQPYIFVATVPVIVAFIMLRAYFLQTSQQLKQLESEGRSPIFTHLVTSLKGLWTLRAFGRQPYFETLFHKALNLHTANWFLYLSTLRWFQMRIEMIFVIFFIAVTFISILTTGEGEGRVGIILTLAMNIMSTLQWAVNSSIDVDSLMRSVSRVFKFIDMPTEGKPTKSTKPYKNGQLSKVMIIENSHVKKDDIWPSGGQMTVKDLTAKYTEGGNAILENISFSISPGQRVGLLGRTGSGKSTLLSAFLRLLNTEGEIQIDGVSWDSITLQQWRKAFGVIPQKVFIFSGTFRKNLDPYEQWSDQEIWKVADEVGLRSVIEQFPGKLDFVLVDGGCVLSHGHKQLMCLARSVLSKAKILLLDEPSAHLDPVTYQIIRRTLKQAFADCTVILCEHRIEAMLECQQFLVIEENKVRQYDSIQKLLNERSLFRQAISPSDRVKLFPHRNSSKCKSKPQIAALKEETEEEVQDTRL
Listing of entries alongside the reported EC50.
Report as a plain number; the unit nM is understood.

Query: Consider the compound shown here: O=C(NS(=O)(=O)C1CC1)c1cc(N2CCC(N3CCCCC3)CC2)c2c(C3CCC3)nn(-c3ccccc3)c2n1 [Compound 428] What is its recorded EC50?
Reply: 77.3

Query: Need EC50, item CS(=O)(=O)NC(=O)c1cc(N2CCC[C@@H](CO)C2)c2c(C3CCC3)nn(-c3ccccc3)c2n1 [Compound 349]
Reply: 424

Query: Consider the compound CC(C)Oc1nn(C2CCCCC2)c2nc(C(=O)NS(C)(=O)=O)cc(-c3ccc(C4(C#N)CCN(C)CC4)cc3)c12 [Compound 639] and give its measured EC50.
Reply: 74.5

---

Listing of entries alongside the reported % Activation.
target: ΔF508-CFTR (Homo sapiens, UniProt P13569, DEL508-508); construct: host or cells: CFBE41o-, doxycycline-inducible; experiment: CFTR cell surface levels using HRP-tagged ΔF508-CFTR expressing CFBE cells, intrinsic corrector capacity; assay type: cell-based; parameters: concentration or dose not given beside the values; details: HRP-tagged ΔF508-CFTR expressing CFBE41o- cells; compound alone (intrinsic corrector capacity); 20 hours at 33° C.
Note: unit % is implicit; provide only the numeric part.

Some compounds with recorded % Activation:
COCC1CCN(c2cc(C(=O)NS(=O)(=O)N3CCC[C@H]3C(=O)N3CCN(C)CC3)nc3c2c(C2CCC2)nn3-c2ccccc2)CC1 :: 165
CS(=O)(=O)NC(=O)c1cc(N2CCC(N3CCC(C#N)C3)CC2)c2c(C3CCC3)nn(-c3ccc(F)cc3)c2n1 (stereo not shown) :: 373.15

Query: State the recorded % Activation for this entry: CN(C)S(=O)(=O)NC(=O)c1cc(N2CCC3C(CCN3C3COC3)C2)c2c(C3CCC3)nn(-c3ccc(F)cc3)c2n1 (stereo not shown)
Reply: 162.47

Query: # get_value(readout='% Activation', item= `COCC1CCN(Cc2cc(C(=O)NS(=O)(=O)N(C)C)nc3c2c(C2CCC2)nn3-c2ccc(F)cc2)CC1` )
Reply: 31.93

Query: Return reported % Activation; argument: `CN(C)C[C@@H](F)C1CCN(c2cc(C(=O)NS(C)(=O)=O)nc3c2c(C2CCC2)nn3-c2ccccc2)CC1`
Reply: 381.1

Query: Recorded % Activation for `Cc1cccc(-n2nc(C(C)C)c3c(N4CCC(CF)CC4)cc(C(=O)NS(C)(=O)=O)nc32)c1` , please?
Reply: 295.25

Query: Which % Activation reading was recorded for the compound CN(C)S(=O)(=O)NC(=O)c1cc(N2CCC(N3CCC(F)C3)CC2)c2c(C3CCC3)nn(-c3ccc(F)cc3)c2n1 (stereo not shown) ?
Reply: 231.7

---

molecular target: CFTR ΔF508 (Homo sapiens, UniProt P13569, DEL508-508); construct: bronchial epithelial cells isolated from CF patients homozygous for the CFTR ΔF508 mutation; McGill University; Asterand; University of North Carolina hAEC-CF; host or cells: primary human bronchial epithelial cells from CF patients homozygous for ΔF508, differentiated at air-liquid interface; test: Chronic TECC assay, primary bronchial epithelial cells of CF patients homozygous for CFTR ΔF508 (corrector, co-corrector and potentiator); type: cell-based; conditions: chronic TECC; test compound at 3 μM; AUC = full area under the curve upon forskolin stimulation
Sequence (P13569 with tags, fused parts or gaps DEL508-508): as above
Recorded % Activity at 3 μM (AUC**) values for a group of compounds are listed next.
Report only the number, with the unit % understood.

The examples below pair each entry with its known result.
CNS(=O)(=O)NC(=O)c1cc(N2CCC(N3CCC(OC)CC3)CC2)c2c(C3CCC3)nn(-c3ccc(F)cc3)c2n1 :: 153.3918
COCC1CCN(c2cc(C(=O)NS(=O)(=O)N3CCC(N4CCOCC4)C3)nc3c2c(C2CCC2)nn3-c2ccc(F)cc2)CC1 (stereo not drawn) :: 442.1916
CN(C)S(=O)(=O)NC(=O)c1cc(N2CCC3(CC2)CCN(C2COC2)CC3)c2c(C3CCC3)nn(-c3ccc(F)cc3)c2n1 :: 407.7118
CCS(=O)(=O)N(C)C(=O)c1cc(N2CCC(CN3CCCC3)CC2)c2c(C3CCC3)nn(-c3ccccc3)c2n1 :: 251.6549

Query: # returns recorded % Activity at 3 μM (AUC**) (system: CFTR ΔF508 (Homo sapiens, UniProt P13569, DEL508-508)) for `CN(C)S(=O)(=O)NC(=O)c1cc(N2CCC(N3CCOCC3)CC2)c2c(C3CCC3)nn(-c3ccc4c(c3)OC(F)(F)O4)c2n1`
Reply: 433.3333

Query: Item: `CC(C)Oc1nn(C2CCCCC2)c2nc(C(=O)NS(=O)(=O)N(C)C)cc(-c3ccc(C(=O)N4CCC(N(C)C)CC4)cc3)c12` Test system: CFTR ΔF508 (Homo sapiens, UniProt P13569, DEL508-508) Read-out: % Activity at 3 μM (AUC**) Value: ?
Reply: 282.0317

---

molecular target: ΔF508-CFTR (Homo sapiens, UniProt P13569, DEL508-508); construct: host or cells: CFBE41o-, doxycycline-inducible; test: CFTR cell surface levels using HRP-tagged ΔF508-CFTR expressing CFBE cells, in the presence of a co-corrector; type: cell-based; details: HRP-tagged ΔF508-CFTR CFBE cells, in the presence of 3 μM co-corrector
# note: exactly 300% is not below, so it is -1; use 1 for % Activation strictly under it

Examples from the recorded data:
Cc1nn(-c2ccccc2)c2nc(C(=O)NS(=O)(=O)c3ccccc3)cc(-c3ccc(N4CCOCC4)cc3)c12 :: -1
COCCN(C)c1ccc(-c2cc(C(=O)NS(C)(=O)=O)nc3c2c(C(C)C)nn3-c2cccc(N3CCOCC3)c2)cc1 :: -1
COCC1CCN(c2cc(C(=O)NS(=O)(=O)CCN)nc3c2c(C2CCC2)nn3-c2ccccc2)CC1 :: 1
Cc1nn(-c2cccc(Cl)c2)c2nc(C(=O)NS(C)(=O)=O)cc(-c3ccc(N4CCOCC4)cc3)c12 :: -1
CC(C)N1CCN(c2ccc(-c3cc(C(=O)NS(=O)(=O)N(C)C)nc4c3c(C3CCC3)nn4C3CCCCC3)cn2)CC1 :: -1

Query: Report whether reported % Activation is lower than 300% (strictly) for `COc1ccc(-c2cc(C(=O)NS(C)(=O)=O)nc3c2c(C)nn3-c2ccccc2)cc1`
Reply: -1

Query: Would you kindly verify if % Activation of `CC(C)c1nn(-c2ccc(F)cc2)c2nc(C(=O)NS(C)(=O)=O)cc(N3CCC(N(C)C)CC3)c12` is strictly less than 300%?
Reply: 1

Query: % Activation under 300%? Item: `CCOC(=O)N1CCN(C2CCN(c3cc(C(=O)NS(=O)(=O)N(C)C)nc4c3c(C3CCC3)nn4-c3ccc(F)cc3)CC2)CC1`
Reply: -1

Query: Lab note: % Activation threshold 300%. Does this molecule come in strictly under it? `CN(C)S(=O)(=O)NC(=O)c1cc(N2CCC(N3CCOCC3)CC2)c2c(C3CCC3)nn(-c3cccc(C(F)(F)F)c3)c2n1`
Reply: -1

Query: Quick check: % Activation of `CC(C)c1nn(-c2ccc(F)cc2)c2nc(C(=O)NS(C)(=O)=O)cc(N3CCC4(CC3)CN(C)C(=O)O4)c12` under 300%?
Reply: -1

Query: Could you please tell me whether % Activation recorded for `Cc1cccc(-n2nc(C(C)C)c3c(N4CCC5(CCOCC5)C4)cc(C(=O)NS(C)(=O)=O)nc32)c1` is less than 300%?
Reply: 1

Query: % Activation under 300%? Item: `Cc1nn(-c2ccccc2)c2nc(C(=O)NS(C)(=O)=O)cc(-c3ccc(N(C)C)cc3)c12`
Reply: -1

Query: API: query returns whether the molecule falls strictly under 300% in % Activation. Query: COCC1CCN(c2cc(C(=O)NS(=O)(=O)N3CCC(N4CCOCC4)C3)nc3c2c(C2CCC2)nn3-c2ccc(F)cc2)CC1 (centres unmarked)
Reply: -1

---

target: ΔF508-CFTR (Homo sapiens, UniProt P13569, DEL508-508); construct: host or cells: CFBE41o-, doxycycline-inducible; experiment: CFTR cell surface levels using HRP-tagged ΔF508-CFTR expressing CFBE cells, in the presence of a co-corrector; type: cell-based; conditions: HRP-tagged ΔF508-CFTR CFBE cells, in the presence of 3 μM co-corrector
METRIC NAME: % Activation (%)
Number in %, nothing else.

CC(C)c1nn(-c2ccc(F)cc2)c2nc(C(=O)NS(C)(=O)=O)cc(OCCOC3COC3)c12 [Compound 313] :: 319.75
Cc1nn(-c2cccc(F)c2)c2nc(C(=O)NS(C)(=O)=O)cc(-c3ccc(N4CCOCC4)cc3)c12 [Compound 67] :: 371.62
CCOC(=O)N1CCC(NS(=O)(=O)NC(=O)c2cc(N3CCC(N4CCOCC4)CC3)c3c(C4CCC4)nn(-c4ccccc4)c3n2)CC1 [Compound 433] :: 563.8

Query: Returns the measured % Activation for the input compound. Input: CCS(=O)(=O)NC(=O)c1cc(-c2cnc(N(C)C)nc2)c2c(C3CN(C(=O)OC)C3)nn(C3CCCCC3)c2n1 [Compound 52]
Reply: 257.85

Query: Bench note: what % Activation did CS(=O)(=O)NC(=O)c1cc(OCC2CCCO2)c2c(C3CCC3)nn(-c3ccccc3)c2n1 (stereo not shown) [Compound 283] show?
Reply: 326.85

Query: Return reported % Activation; argument: CN(C)C[C@@H](F)C1CCN(c2cc(C(=O)NS(C)(=O)=O)nc3c2c(C2CCC2)nn3-c2ccccc2)CC1 [Compound 219]
Reply: 524.4

Query: So what's the measured % Activation for this one? COS(=O)(=O)NC(=O)c1cc(N2CCC(N3CCOCC3)CC2)c2c(C3CCC3)nn(-c3ccc(F)cc3)c2n1 [Compound 606]
Reply: 513.7
